assay: Estimation of permeability coefficients from plot of Levin data using measured partition coefficients; conditions: not told; estimated from plot of Levin data (ref 32) using measured octanol/water partition coefficients; read-out: estimated permeability coefficient
endpoint_name: Papp (×10⁻⁶ cm/s)
I only need the number, in ×10⁻⁶ cm/s, no unit after it.

Measured Papp of C=CCN1C(=S)SCC1O (centres unmarked) [allyl HTT, 3-allyl-4-hydroxythiazolidine-2-thione] : 200

Measured Papp of C[S+]([O-])CCCCN1C(=S)SCC1O (centres unmarked) : 11

---

Test: Determination of log P (octanol/water)
Assay type: physicochemical
Conditions: octanol/water, room temperature
Procedure: For the determination of log P of the HTTs, two solutions were used: water saturated with octanol and octanol saturated with water. […] For determination of the log P-value, 50 μL of the water phase was taken and measured by HPLC-UV at 274 ± 2 nm with HPLC method 2 (see Section Stability of 4-Hydroxythiazolidine-2-Thiones in a Stomach Model) with an injection volume of 10 μL. The analyte concentration in the water phase was determined by using external calibration. […]
I'd appreciate it if you could supply logP at 18 h values for the items below.
// response body must contain only the number

Measured logP at 18 h of C=CCN1C(=S)SCC1O (centres unmarked) [allyl HTT, 3-allyl-4-hydroxythiazolidine-2-thione] : 0.91

Measured logP at 18 h of C[S+]([O-])CCCCN1C(=S)SCC1O (centres unmarked) [4-MSOB HTT] : -0.35

---

I'd appreciate it if you could supply dose excreted values for the items below.
Assay: Uptake and excretion from red cabbage broth, human self-experiment (24 h urine, LC-MS/MS)
Assay type: in vivo
Conditions: male, 500 mL red cabbage broth, oral, n = 3, mean ± SD, read-out: recovery in collected urine within 24 h compared to the amount of intake
Description: To obtain the GLS degradation products allyl HTT and 4-MSOB HTT in the food matrix, a kitchen practice approach was applied. […] In total, 950 μL of 1:1 diluted red cabbage boiling solution was measured in 3 different ways (each prepared as duplicates): (1) Spiked with 50 μL water, (2) spiked with 50 μL of a solution with concentrations of 1 μM for allyl HTT and 5 μM for 4-MSOB HTT, or (3) spiked with 50 μL of a solution with concentrations of 3 μM for allyl HTT and 10 μM for 4-MSOB HTT. […]
I only need the number, in %, no unit after it.

Measured dose excreted of C=CCN1C(=S)SCC1O (centres unmarked) [allyl HTT, 3-allyl-4-hydroxythiazolidine-2-thione] : 18

Measured dose excreted of C[S+]([O-])CCCCN1C(=S)SCC1O (centres unmarked) [4-MSOB HTT] : 21
